target: Sodium channel protein type 1 subunit alpha (Homo sapiens) (UniProt P35498); experiment: Activation of human Nav1.1 expressed in HEK293 cells assessed as ratio of compound activation AUC to baseline activation AUC at 0.37 uM at -120 mV holding potential by Qpatch assay; type: cell-based
Positions of bridges follow the written chain, without caps; N, C: chain ends. Non-standard residues stand in square brackets, D forms with d. Residues, ends and D or L forms follow the SMILES beside them. Phe(4-Cl) = N[C@@H](Cc1ccc(Cl)cc1)C(=O)O; 1Nal = N[C@@H](Cc1cccc2ccccc12)C(=O)O; 2Nal = N[C@@H](Cc1ccc2ccccc2c1)C(=O)O
OUTCOME MEASURE: Ratio AUC
No unit in the answer, only the number.

[[record]]
molecule = "CC[C@H](C)[C@H](NC(=O)[C@H](CCCNC(=N)N)NC(=O)[C@@H](NC(=O)[C@@H](N)CCCNC(=N)N)[C@@H](C)CC)C(=O)NCC(=O)N[C@@H](CC(C)C)C(=O)N[C@@H](Cc1ccccc1)C(=O)N[C@@H](CC(=O)O)C(=O)N[C@@H](CCC(N)=O)C(=O)N[C@@H](CC(C)C)C(=O)N[C@@H](CO)C(=O)N[C@@H](CCCNC(=N)N)C(=O)N[C@@H](CC(C)C)C(N)=O (H-RIRIGLFDQLSRL-NH2)"
outcome_measure = "Ratio AUC"
recorded_value = 1.1

[[record]]
molecule = "CC[C@H](C)[C@H](NC(=O)[C@H](CCCNC(=N)N)NC(=O)[C@@H](NC(=O)[C@@H](N)CCCNC(=N)N)[C@@H](C)CC)C(=O)NCC(=O)N[C@@H](CC(C)C)C(=O)N[C@@H](Cc1ccccc1)C(=O)N[C@@H](CC(=O)O)C(=O)N[C@@H](CCC(N)=O)C(=O)N[C@@H](CC(C)C)C(=O)N[C@@H](Cc1ccc(Cl)cc1)C(=O)N[C@@H](CCCNC(=N)N)C(=O)N[C@@H](CC(C)C)C(N)=O (H-RIRIGLFDQL[Phe(4-Cl)]RL-NH2)"
outcome_measure = "Ratio AUC"
recorded_value = 1.2

[[record]]
molecule = "CC[C@H](C)[C@H](NC(=O)[C@H](CCCCN)NC(=O)[C@@H](NC(=O)[C@@H](N)CCCNC(=N)N)[C@@H](C)CC)C(=O)NCC(=O)N[C@@H](CC(C)C)C(=O)N[C@@H](Cc1cccc2ccccc12)C(=O)N[C@@H](CC(=O)O)C(=O)N[C@@H](CCC(N)=O)C(=O)N[C@@H](CC(C)C)C(=O)N[C@@H](CO)C(=O)N[C@@H](CCCNC(=N)N)C(=O)N[C@@H](CC(C)C)C(N)=O (H-RIKIGL[1Nal]DQLSRL-NH2)"
outcome_measure = "Ratio AUC"
recorded_value = 1.2

[[record]]
molecule = "CC[C@H](C)[C@H](NC(=O)[C@H](CCCCN)NC(=O)[C@@H](NC(=O)[C@@H](N)CCCNC(=N)N)[C@@H](C)CC)C(=O)N[C@H](C)C(=O)N[C@@H](CC(C)C)C(=O)N[C@@H](Cc1ccccc1)C(=O)N[C@@H](CC(=O)O)C(=O)N[C@@H](CCC(N)=O)C(=O)N[C@@H](CC(C)C)C(=O)N[C@@H](CO)C(=O)N[C@@H](CCCNC(=N)N)C(=O)N[C@@H](CC(C)C)C(N)=O"
outcome_measure = "Ratio AUC"
recorded_value = 0.1

[[record]]
molecule = "CC[C@H](C)[C@H](NC(=O)[C@H](CCCCN)NC(=O)[C@@H](NC(=O)[C@@H](N)CC(=O)O)[C@@H](C)CC)C(=O)NCC(=O)N[C@@H](CC(C)C)C(=O)N[C@@H](Cc1ccccc1)C(=O)N[C@@H](CCCNC(=N)N)C(=O)N[C@@H](CCC(N)=O)C(=O)N[C@@H](CC(C)C)C(=O)N[C@@H](CO)C(=O)N[C@@H](CCCNC(=N)N)C(=O)N[C@@H](CC(C)C)C(N)=O (H-DIKIGLFRQLSRL-NH2)"
outcome_measure = "Ratio AUC"
recorded_value = 1.1


Recorded Ratio AUC of CC[C@H](C)[C@H](NC(=O)[C@H](CCCCN)NC(=O)[C@H](CC(C)C)NC(=O)[C@@H](N)CCCNC(=N)N)C(=O)NCC(=O)N[C@@H](CC(C)C)C(=O)N[C@@H](Cc1ccccc1)C(=O)N[C@@H](CC(=O)O)C(=O)N[C@@H](CCC(N)=O)C(=O)N[C@@H](CC(C)C)C(=O)N[C@@H](CO)C(=O)N[C@@H](CCCNC(=N)N)C(=O)N[C@@H](CC(C)C)C(N)=O (H-RLKIGLFDQLSRL-NH2) , please. 1

Another: CC[C@H](C)[C@H](NC(=O)[C@H](CCCNC(=N)N)NC(=O)[C@@H](NC(=O)[C@@H](N)CCCNC(=N)N)[C@@H](C)CC)C(=O)NCC(=O)N[C@@H](CC(C)C)C(=O)N[C@@H](Cc1ccccc1)C(=O)N[C@@H](CC(=O)O)C(=O)N[C@@H](CCC(N)=O)C(=O)N[C@@H](CC(C)C)C(=O)N[C@@H](CC(C)C)C(=O)N[C@@H](CCCNC(=N)N)C(=O)N[C@@H](CC(C)C)C(N)=O (H-RIRIGLFDQLLRL-NH2) 1.6

Please give the result for CC[C@H](C)[C@H](NC(=O)[C@H](CCCCN)NC(=O)[C@@H](NC(=O)[C@@H](N)CCCNC(=N)N)[C@@H](C)CC)C(=O)NCC(=O)N[C@@H](CC(C)C)C(=O)N[C@@H](Cc1ccc2ccccc2c1)C(=O)N[C@@H](CC(=O)O)C(=O)N[C@@H](CCC(N)=O)C(=O)N[C@@H](CC(C)C)C(=O)N[C@@H](CO)C(=O)N[C@@H](CCCNC(=N)N)C(=O)N[C@@H](CC(C)C)C(N)=O (H-RIKIGL[2Nal]DQLSRL-NH2) too. 2.1

Same lookup for CC[C@H](C)[C@H](NC(=O)[C@H](CCCCN)NC(=O)[C@@H](NC(=O)[C@@H](N)CCCNC(=N)N)[C@@H](C)CC)C(=O)NCC(=O)N[C@@H](CC(C)C)C(=O)N[C@@H](Cc1c[nH]c2ccccc12)C(=O)N[C@@H](CC(=O)O)C(=O)N[C@@H](CCC(N)=O)C(=O)N[C@@H](CC(C)C)C(=O)N[C@@H](CO)C(=O)N[C@@H](CCCNC(=N)N)C(=O)N[C@@H](CC(C)C)C(N)=O (H-RIKIGLWDQLSRL-NH2) , please. 0.9

Would you kindly repeat that for CC[C@H](C)[C@@H]1NC(=O)[C@H](CCCCN)NC(=O)[C@H]([C@@H](C)CC)NC(=O)[C@@H](N)CSSC[C@@H](C(=O)N[C@@H](CCC(N)=O)C(=O)N[C@@H](CC(C)C)C(=O)N[C@@H](CO)C(=O)N[C@@H](CCCNC(=N)N)C(=O)N[C@@H](CC(C)C)C(N)=O)NC(=O)[C@H](Cc2ccccc2)NC(=O)[C@H](CC(C)C)NC(=O)CNC1=O (H-CIKIGLFCQLSRL-NH2; disulfide 1-8) ? 1.1

---

target: Sodium channel protein type 1 subunit alpha (Homo sapiens) (UniProt P35498); experiment: Activation of human Nav1.1 expressed in HEK293 cells assessed as ratio of compound activation AUC to baseline activation AUC at 3.3 uM at -120 mV holding potential by Qpatch assay; format: cell-based
Non-standard residues stand in square brackets, D forms with d. Residues, ends and D or L forms follow the SMILES beside them. 1Nal = N[C@@H](Cc1cccc2ccccc12)C(=O)O; 2Nal = N[C@@H](Cc1ccc2ccccc2c1)C(=O)O
Ratio AUC vs 3: at or above is Satisfied, below is Not satisfied.

[[record]]
molecule = "CC[C@H](C)[C@H](NC(=O)[C@H](CCCCN)NC(=O)[C@@H](NC(=O)[C@@H](N)CCCNC(=N)N)[C@@H](C)CC)C(=O)NCC(=O)N[C@@H](CC(C)C)C(=O)N[C@@H](Cc1cccc2ccccc12)C(=O)N[C@@H](CC(=O)O)C(=O)N[C@@H](CCC(N)=O)C(=O)N[C@@H](CC(C)C)C(=O)N[C@@H](CO)C(=O)N[C@@H](CCCNC(=N)N)C(=O)N[C@@H](CC(C)C)C(N)=O (H-RIKIGL[1Nal]DQLSRL-NH2)"
label = "Satisfied"

[[record]]
molecule = "CC[C@H](C)[C@H](NC(=O)[C@H](CCCCN)NC(=O)[C@@H](NC(=O)[C@@H](N)CC(=O)O)[C@@H](C)CC)C(=O)NCC(=O)N[C@@H](CC(C)C)C(=O)N[C@@H](Cc1ccccc1)C(=O)N[C@@H](CCCNC(=N)N)C(=O)N[C@@H](CCC(N)=O)C(=O)N[C@@H](CC(C)C)C(=O)N[C@@H](CO)C(=O)N[C@@H](CCCNC(=N)N)C(=O)N[C@@H](CC(C)C)C(N)=O (H-DIKIGLFRQLSRL-NH2)"
label = "Not satisfied"

[[record]]
molecule = "CC[C@H](C)[C@H](NC(=O)[C@H](CCCCN)NC(=O)[C@H](CC(C)C)NC(=O)[C@@H](N)CCCNC(=N)N)C(=O)NCC(=O)N[C@@H](CC(C)C)C(=O)N[C@@H](Cc1ccccc1)C(=O)N[C@@H](CC(=O)O)C(=O)N[C@@H](CCC(N)=O)C(=O)N[C@@H](CC(C)C)C(=O)N[C@@H](CO)C(=O)N[C@@H](CCCNC(=N)N)C(=O)N[C@@H](CC(C)C)C(N)=O (H-RLKIGLFDQLSRL-NH2)"
label = "Not satisfied"

[[record]]
molecule = "CC[C@H](C)[C@H](NC(=O)[C@H](CCCNC(=N)N)NC(=O)[C@@H](NC(=O)[C@@H](N)CCCNC(=N)N)[C@@H](C)CC)C(=O)NCC(=O)N[C@@H](CC(C)C)C(=O)N[C@@H](Cc1ccccc1)C(=O)N[C@@H](CC(=O)O)C(=O)N[C@@H](CCC(N)=O)C(=O)N[C@@H](CC(C)C)C(=O)N[C@@H](CC(C)C)C(=O)N[C@@H](CCCNC(=N)N)C(=O)N[C@@H](CC(C)C)C(N)=O (H-RIRIGLFDQLLRL-NH2)"
label = "Satisfied"

[[record]]
molecule = "CC[C@H](C)[C@H](NC(=O)[C@H](CCCNC(=N)N)NC(=O)[C@@H](NC(=O)[C@@H](N)CCCNC(=N)N)[C@@H](C)CC)C(=O)NCC(=O)N[C@@H](CC(C)C)C(=O)N[C@@H](Cc1ccccc1)C(=O)N[C@@H](CC(=O)O)C(=O)N[C@@H](CCC(N)=O)C(=O)N[C@@H](CC(C)C)C(=O)N[C@@H](Cc1ccccc1)C(=O)N[C@@H](CCCNC(=N)N)C(=O)N[C@@H](CC(C)C)C(N)=O (H-RIRIGLFDQLFRL-NH2)"
label = "Not satisfied"


Can CC[C@H](C)[C@H](NC(=O)[C@H](CCCCN)NC(=O)[C@@H](NC(=O)[C@@H](N)CCCNC(=N)N)[C@@H](C)CC)C(=O)NCC(=O)N[C@@H](CC(C)C)C(=O)N[C@@H](Cc1ccccc1)C(=O)N[C@@H](CC(=O)O)C(=O)N[C@@H](CCC(N)=O)C(=O)N[C@@H](CC(C)C)C(=O)N[C@@H](CO)C(=O)N[C@@H](CCCNC(=N)N)C(=O)N[C@@H](CC(C)C)C(N)=O (H-RIKIGLFDQLSRL-NH2) be said to have Ratio AUC at or above 3? Not satisfied

Next molecule: CC[C@H](C)[C@H](NC(=O)[C@H](CCCNC(=N)N)NC(=O)[C@@H](NC(=O)[C@@H](N)CCCNC(=N)N)[C@@H](C)CC)C(=O)NCC(=O)N[C@@H](CC(C)C)C(=O)N[C@@H](Cc1ccc2ccccc2c1)C(=O)N[C@@H](CC(=O)O)C(=O)N[C@@H](CCC(N)=O)C(=O)N[C@@H](CC(C)C)C(=O)N[C@@H](CC(C)C)C(=O)N[C@@H](CCCNC(=N)N)C(=O)N[C@@H](CC(C)C)C(N)=O (H-RIRIGL[2Nal]DQLLRL-NH2) Satisfied

Request: CC[C@H](C)[C@H](NC(=O)[C@H](CCCNC(=N)N)NC(=O)[C@@H](NC(=O)[C@@H](N)CCCNC(=N)N)[C@@H](C)CC)C(=O)NCC(=O)N[C@@H](CC(C)C)C(=O)N[C@@H](Cc1ccccc1)C(=O)N[C@@H](CC(=O)O)C(=O)N[C@@H](CCC(N)=O)C(=O)N[C@@H](CC(C)C)C(=O)N[C@@H](Cc1c[nH]c2ccccc12)C(=O)N[C@@H](CCCNC(=N)N)C(=O)N[C@@H](CC(C)C)C(N)=O (H-RIRIGLFDQLWRL-NH2) Satisfied

Same question for CC[C@H](C)[C@H](NC(=O)[C@H](CCCCN)NC(=O)[C@@H](NC(=O)[C@@H](N)CCCNC(=N)N)[C@@H](C)CC)C(=O)NCC(=O)N[C@@H](CC(C)C)C(=O)N[C@@H](Cc1ccc2ccccc2c1)C(=O)N[C@@H](CC(=O)O)C(=O)N[C@@H](CCC(N)=O)C(=O)N[C@@H](CC(C)C)C(=O)N[C@@H](CO)C(=O)N[C@@H](CCCNC(=N)N)C(=O)N[C@@H](CC(C)C)C(N)=O (H-RIKIGL[2Nal]DQLSRL-NH2) please. Satisfied

Try this molecule too: `CC[C@H](C)[C@H](NC(=O)[C@@H](N)CCCNC(=N)N)C(=O)N[C@@H](CCCCN)C(=O)N[C@H](C(=O)N1CCC[C@@H]1C(=O)N[C@@H](CC(C)C)C(=O)N[C@@H](Cc1ccccc1)C(=O)N[C@@H](CC(=O)O)C(=O)N[C@@H](CCC(N)=O)C(=O)N[C@@H](CC(C)C)C(=O)N[C@@H](CO)C(=O)N[C@@H](CCCNC(=N)N)C(=O)N[C@@H](CC(C)C)C(N)=O)[C@@H](C)CC` Not satisfied
